target: C5a Receptor (Homo sapiens, UniProt P21730)
Construct: 2.5-25 μg/mL of purified PMNL membrane fragments; from tissue; host or cells: polymorphonuclear leukocyte (PMNL) membrane fragments
Sequence (P21730 whole entry, the tested form may be a part): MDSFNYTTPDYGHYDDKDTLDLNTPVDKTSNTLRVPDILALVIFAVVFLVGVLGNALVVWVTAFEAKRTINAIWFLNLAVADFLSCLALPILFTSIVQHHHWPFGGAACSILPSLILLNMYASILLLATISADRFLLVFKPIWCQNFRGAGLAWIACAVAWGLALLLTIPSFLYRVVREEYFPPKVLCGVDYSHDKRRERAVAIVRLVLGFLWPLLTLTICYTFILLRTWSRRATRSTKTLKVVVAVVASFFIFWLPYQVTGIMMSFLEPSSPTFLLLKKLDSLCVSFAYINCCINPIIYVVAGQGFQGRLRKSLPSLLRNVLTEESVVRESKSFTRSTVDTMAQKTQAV
protocol: Anaphylatoxin receptor binding Ki determination (inhibition of 125I-C5a binding to PMNL membrane fragments)
Method: Specific inhibition of C5 a binding activity of representative compounds of the present invention was measured using 0.03-1 nM ^125 I-C5 a with 2.5-25 μg/mL of purified PMNL membrane fragments (Borregaard, N.; Heiple, J. M.; Simons, E. R.; and Clark, R. A. J. Cell. Biol. 1983, 97, 52-61.). Free and membrane-bound ligand were separated by filtration.
Non-standard residues stand in square brackets, D forms with d. Residues, ends and D or L forms follow the SMILES beside them. *: point of attachment. X10 = N=C(N)NCCCCN(C[C@H](CC1CCCCC1)N*)C(=O)Cc1ccccc1; NMeF = CN[C@@H](Cc1ccccc1)C(=O)O; Cha = N[C@@H](CC1CCCCC1)C(=O)O; dCha = N[C@H](CC1CCCCC1)C(=O)O; X8 = c1ccc(C2(CN*)CC2)cc1; Bz = O=C(c1ccccc1)*; X3 = N=C(N)NCCCN*
Form field: Ki (one value per entry).
Provide only the numeric value, understood in nM.

CN[C@@H](Cc1ccccc1)C(=O)N[C@@H](CCCCN)C(=O)N1CCC[C@H]1C(=O)N[C@H](CC1CCCCC1)C(=O)N[C@@H](Cc1ccccc1)C(=O)NCC1(c2ccccc2)CC1 [Example 100] (H-[NMeF]KP[dCha]F-X8); 91
CN[C@@H](Cc1ccccc1)C(=O)N[C@@H](CCCCN)C(=O)N1CCC[C@H]1C(=O)N[C@H](CC1CCCCC1)C(=O)N[C@@H](CC1CCCCC1)CN(CCCCNC(=N)N)C(=O)Cc1ccccc1 [Example 78] (H-[NMeF]KP[dCha]-X10); 680
CN[C@@H](Cc1ccccc1)C(=O)N[C@@H](CCCCN)C(=O)N1CCC[C@H]1C(=O)N[C@H](CC1CCCCC1)C(=O)N[C@@H](Cc1ccccc1)C(=O)NCCCNC(=N)N [Example 201] (H-[NMeF]KP[dCha]F-X3); 690

Proceed to the following item.
Fill in the blank: the reported Ki of N=C(N)NCCC[C@@H](NC(=O)[C@H](CC1CCCCC1)NC(=O)[C@@H](CC1CCCCC1)NC(=O)[C@@H]1CCCN1C(=O)[C@H](CCCCN)NC(=O)c1ccccc1)C(=O)O [Example 82] (Bz-KP[dCha][Cha][dR]-OH) is ____.
24000

###

target: C5a Receptor (Homo sapiens)
Construct: 2.5-25 μg/mL of purified PMNL membrane fragments; from tissue; host or cells: polymorphonuclear leukocyte (PMNL) membrane fragments
protocol: Anaphylatoxin receptor binding Ki determination (inhibition of 125I-C5a binding to PMNL membrane fragments)
Non-standard residues stand in square brackets, D forms with d. Residues, ends and D or L forms follow the SMILES beside them. *: point of attachment. NMeF = CN[C@@H](Cc1ccccc1)C(=O)O; Cha = N[C@@H](CC1CCCCC1)C(=O)O; dCha = N[C@H](CC1CCCCC1)C(=O)O; X2 = N#CC(Cc1ccccc1)C(=O)*; 4Amb = NCc1ccc(C(=O)O)cc1; X5 = c1ccc(NN*)cc1
measurementName: pKi
Reminder that pKi means the negative base-10 logarithm of the concentration expressed in mol/L.

Solved entries:
CN[C@@H](Cc1ccccc1)C(=O)N[C@@H](CCCCN)C(=O)N1CCC[C@H]1C(=O)N[C@H](CC1CCCCC1)C(=O)N[C@@H](CC1CCCCC1)C(=O)NNc1ccccc1 [Example 163] (H-[NMeF]KP[dCha][Cha]-X5); 6.85
CN[C@@H](Cc1ccccc1)C(=O)N[C@@H](CCCCN)C(=O)N1CCC[C@H]1C(=O)N[C@H](CC1CCCCC1)C(=O)N[C@@H](Cc1ccccc1)C(=O)NCc1ccc(C(=O)O)cc1 [Example 177] (H-[NMeF]KP[dCha]F[4Amb]-OH); 4.41

Here is the next item to consider.
Return pKi measured with C5a Receptor (Homo sapiens) given this compound: N#CC(Cc1ccccc1)C(=O)N[C@@H](CCCCN)C(=O)N1CCC[C@H]1C(=O)N[C@H](CC1CCCCC1)C(=O)N[C@@H](Cc1ccccc1)C(=O)N[C@H](CCCNC(=N)N)C(=O)O (stereo partly drawn) [Example 99] (X2-KP[dCha]F[dR]-OH)
6.92
